Data provenance: BindingDB's records for doi:10.1007/s002109900141

Lab note: Ki readings collected with Somatostatin receptor type 3 (Homo sapiens) for the following molecules.
Where a SMILES comes first, the peptide text is derived from it. Bridges are numbered along the chain shown (N, C = ends). [ ]: non-standard residue; d: D form. Asu = N[C@@H](CCCCCC(=O)O)C(=O)O
Give bare numbers, in pM.

Please go through the list and note Ki for each molecule.
1. C[C@@H](O)[C@@H]1NC(=O)[C@H](CCCCN)NC(=O)[C@@H](Cc2c[nH]c3ccccc23)NC(=O)[C@H](Cc2ccccc2)NC(=O)[C@@H]2CCCN2C(=O)[C@H](Cc2ccccc2)NC1=O (cyclo(PF[dW]KTF))
2. C[C@@H](O)[C@H](NC(=O)[C@H](Cc1ccccc1)NC(=O)[C@@H](NC(=O)[C@H](CCCCN)NC(=O)[C@@H](Cc1c[nH]c2ccccc12)NC(=O)[C@H](Cc1ccccc1)NC(=O)[C@H](Cc1ccccc1)NC(=O)[C@H](N)Cc1ccccc1)[C@@H](C)O)C(N)=O [CAS_133073-82-2] (H-[dF]FF[dW]KTFT-NH2)
3. C[C@@H](O)[C@@H]1NC(=O)[C@H](Cc2ccc(O)cc2)NC(=O)[C@H]([C@@H](C)O)NC(=O)[C@H](CCCCN)NC(=O)[C@H](Cc2c[nH]c3ccccc23)NC(=O)[C@H](Cc2ccccc2)NC(=O)[C@H](Cc2ccccc2)NC(=O)[C@H](CC(N)=O)NC(=O)[C@H](CCCCN)NC(=O)CCCCC[C@@H](C(=O)O)NC(=O)[C@H](CO)NC1=O [CGP-23996] (KNFFWKTYTS[Asu]-OH; lactam N-11)

Reply text:
107000
190
700

----------
biological target: Somatostatin receptor type 1 (Homo sapiens)
Where a SMILES comes first, the peptide text is derived from it. Bridges are numbered along the chain shown (N, C = ends).
attribute measured: pKi
One number for each entry, as −log10 of the molar value.

Inquiry: Look at this compound and give its reported pKi. C[C@@H](O)[C@@H]1NC(=O)[C@H](CCCCN)NC(=O)[C@H](Cc2c[nH]c3ccccc23)NC(=O)[C@H](Cc2ccccc2)NC(=O)[C@H](Cc2ccccc2)NC(=O)[C@H](CC(N)=O)NC(=O)[C@H](CCCCN)NC(=O)[C@@H](NC(=O)[C@@H]2CCCN2)CSSC[C@@H](C(=O)N[C@@H](CCCCN)C(=O)O)NC(=O)[C@H](CO)NC(=O)[C@H](CO)NC(=O)[C@H](Cc2ccccc2)NC1=O [Cortistatin(1-14)] (H-PCKNFFWKTFSSCK-OH; disulfide 2-13)
Reply text: 9.07

----------
molecular target: Somatostatin receptor type 1 (Homo sapiens, UniProt P30872)
Sequence (P30872 whole entry): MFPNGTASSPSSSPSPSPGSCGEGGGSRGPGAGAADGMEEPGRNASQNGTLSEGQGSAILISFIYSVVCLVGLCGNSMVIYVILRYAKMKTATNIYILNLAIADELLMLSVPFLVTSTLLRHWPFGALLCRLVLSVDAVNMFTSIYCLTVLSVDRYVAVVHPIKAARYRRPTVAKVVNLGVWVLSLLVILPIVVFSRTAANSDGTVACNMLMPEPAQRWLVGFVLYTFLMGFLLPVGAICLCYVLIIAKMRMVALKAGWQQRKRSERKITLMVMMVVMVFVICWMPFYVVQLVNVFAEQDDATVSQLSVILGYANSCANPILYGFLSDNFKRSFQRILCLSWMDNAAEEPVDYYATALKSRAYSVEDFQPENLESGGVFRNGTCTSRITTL
pKi: −log10 of the molar value. *1 amine or outer side, *2 acyl side, *3 side chain or, on linkers, in order; H or OH if unused. Where a SMILES comes first, the peptide text is derived from it. Bridges are numbered along the chain shown (N, C = ends). [ ]: non-standard residue; d: D form. d1Nal = N[C@H](Cc1cccc2ccccc12)C(=O)O; X1 = O=C(C(N[*:1])S[*:3])[*:2]; Mpa = O=C(O)CCS
Outcome label depends on pKi relative to 6: at/above gives satisfied, below gives not satisfied.

Consider the worked cases shown below.
- molecule: "CC(C)[C@H](NC(=O)[C@H](CCCCN)NC(=O)[C@@H](Cc1c[nH]c2ccccc12)NC(=O)[C@H](Cc1ccc(O)cc1)NC(=O)[C@H](Cc1ccccc1)NC(=O)[C@H](N)Cc1ccccc1)C(=O)N[C@@H](Cc1ccccc1)C(=O)N[C@H](Cc1cccc2ccccc12)C(N)=O [BIM 23056] (H-[dF]FY[dW]KVF[d1Nal]-NH2)"
  category label: "satisfied"
- molecule: "CC(C)[C@@H]1NC(=O)[C@H](CCCCN)NC(=O)[C@@H](Cc2c[nH]c3ccccc23)NC(=O)[C@H](Cc2ccc(O)cc2)NC(=O)[C@@H](NC(=O)[C@H](N)Cc2ccccc2)CSSC[C@@H](C(=O)N[C@@H](Cc2c[nH]c3ccccc23)C(N)=O)NC1=O [CAS_71306] (H-[dF]CY[dW]KVCW-NH2; disulfide 2-7)"
  category label: "satisfied"
- molecule: "C[C@@H](O)[C@@H]1NC(=O)[C@H](CCCCN)NC(=O)[C@@H](Cc2c[nH]c3ccccc23)NC(=O)[C@H](Cc2ccccc2)NC(=O)[C@@H]2CCCN2C(=O)[C@H](Cc2ccccc2)NC1=O (cyclo(PF[dW]KTF))"
  category label: "not satisfied"

Inquiry: Record CC(C)[C@@H]1NC(=O)[C@H](CCCCN)NC(=O)[C@@H](Cc2c[nH]c3ccccc23)NC(=O)[C@H](Cc2ccc(O)cc2)NC(=O)CCSSC(C(=O)N[C@@H](Cc2ccccc2)C(N)=O)NC1=O (stereo not given in full) [CAS_117580-24-2] ([Mpa]Y[dW]KV[X1]F-NH2; disulfide 1-6) ; criterion: pKi no lower than 6. Met?
Reply text: not satisfied

----------
Hi there, I'd appreciate the recorded Ki for every entry that follows.
target: UniProt P32745
Where a SMILES comes first, the peptide text is derived from it. Bridges are numbered along the chain shown (N, C = ends). [ ]: non-standard residue; d: D form. d1Nal = N[C@H](Cc1cccc2ccccc12)C(=O)O
Numbers only, in nM.

Below, each entry is followed by its recorded Ki result.
- molecule: "CSCC[C@H](NC(=O)[C@H](CCCN=C(N)N)NC(=O)[C@@H](N)CC(=O)O)C(=O)N1CCC[C@H]1C(=O)N[C@H]1CSSC[C@@H](C(=O)N[C@@H](CCCCN)C(=O)O)NC(=O)[C@H](CO)NC(=O)[C@H](CO)NC(=O)[C@H](Cc2ccccc2)NC(=O)[C@H]([C@@H](C)O)NC(=O)[C@H](CCCCN)NC(=O)[C@H](Cc2c[nH]c3ccccc23)NC(=O)[C@H](Cc2ccccc2)NC(=O)[C@H](Cc2ccccc2)NC(=O)[C@H](CC(N)=O)NC(=O)[C@H](CCCN=C(N)N)NC1=O"
  target of assay: "UniProt P32745"
  Ki (nM): 0.13
- molecule: "CC(C)[C@H](NC(=O)[C@H](CCCCN)NC(=O)[C@@H](Cc1c[nH]c2ccccc12)NC(=O)[C@H](Cc1ccc(O)cc1)NC(=O)[C@H](Cc1ccccc1)NC(=O)[C@H](N)Cc1ccccc1)C(=O)N[C@@H](Cc1ccccc1)C(=O)N[C@H](Cc1cccc2ccccc12)C(N)=O [BIM 23056] (H-[dF]FY[dW]KVF[d1Nal]-NH2)"
  target of assay: "UniProt P32745"
  Ki (nM): 63.1
- molecule: "CC(C)[C@@H]1NC(=O)[C@H](CCCCN)NC(=O)[C@@H](Cc2c[nH]c3ccccc23)NC(=O)[C@H](Cc2ccc(O)cc2)NC(=O)[C@@H](NC(=O)[C@H](N)Cc2ccccc2)CSSC[C@@H](C(=O)N[C@@H](Cc2c[nH]c3ccccc23)C(N)=O)NC1=O [CAS_71306] (H-[dF]CY[dW]KVCW-NH2; disulfide 2-7)"
  target of assay: "UniProt P32745"
  Ki (nM): 15.1

Let us move to another entry and its Ki.
Inquiry: Look at this molecule and give its reported Ki. CC(C)[C@@H]1NC(=O)[C@H](CCCCN)NC(=O)[C@@H](Cc2c[nH]c3ccccc23)NC(=O)[C@H](Cc2ccc(O)cc2)NC(=O)[C@H](C)N(C)C(=O)[C@H](Cc2ccccc2)NC1=O [seglitide]
Reply text: 20.9

----------
target: Somatostatin receptor type 3 (Homo sapiens, UniProt P32745)
Sequence (P32745 whole entry): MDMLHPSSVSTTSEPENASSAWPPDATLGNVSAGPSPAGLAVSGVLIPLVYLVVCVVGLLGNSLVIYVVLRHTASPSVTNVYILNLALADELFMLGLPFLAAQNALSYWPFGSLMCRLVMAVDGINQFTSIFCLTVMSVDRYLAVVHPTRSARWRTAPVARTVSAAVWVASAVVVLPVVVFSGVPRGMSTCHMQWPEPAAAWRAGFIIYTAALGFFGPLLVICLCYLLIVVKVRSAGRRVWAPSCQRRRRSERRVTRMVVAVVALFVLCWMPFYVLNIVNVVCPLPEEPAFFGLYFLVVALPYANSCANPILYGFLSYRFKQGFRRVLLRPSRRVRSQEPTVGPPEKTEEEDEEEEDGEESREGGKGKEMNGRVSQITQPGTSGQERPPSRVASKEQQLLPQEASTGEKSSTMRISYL
Where a SMILES comes first, the peptide text is derived from it. Bridges are numbered along the chain shown (N, C = ends). [ ]: non-standard residue; d: D form. Ahp = NCCCCCCC(=O)O
Hi there, I'd appreciate the recorded pKi for every entry that follows.
Answers are plain numbers, as −log10 of the molar value.

- compound: "C[C@@H](O)[C@@H]1NC(=O)[C@H](CCCCN)NC(=O)[C@@H](Cc2c[nH]c3ccccc23)NC(=O)[C@H](Cc2c[nH]c3ccccc23)NC(=O)[C@H](Cc2ccccc2)NC(=O)CCCCCCNC(=O)[C@H](Cc2ccccc2)NC1=O [L-362855] (cyclo([Ahp]FW[dW]KTF))"
  pKi: 8.29

Let us move to another entry and its pKi.
Inquiry: Look at this compound and give its reported pKi. C[C@@H](O)[C@@H]1NC(=O)[C@H](CCCCN)NC(=O)[C@H](Cc2c[nH]c3ccccc23)NC(=O)[C@H](Cc2ccccc2)NC(=O)[C@H](Cc2ccccc2)NC(=O)[C@H](CC(N)=O)NC(=O)[C@H](CCCCN)NC(=O)[C@@H](NC(=O)[C@@H]2CCCN2)CSSC[C@@H](C(=O)N[C@@H](CCCCN)C(=O)O)NC(=O)[C@H](CO)NC(=O)[C@H](CO)NC(=O)[C@H](Cc2ccccc2)NC1=O [Cortistatin(1-14)] (H-PCKNFFWKTFSSCK-OH; disulfide 2-13)
Reply text: 9.28
